Target: T1, Mcl-1, Q07820
T1 chain: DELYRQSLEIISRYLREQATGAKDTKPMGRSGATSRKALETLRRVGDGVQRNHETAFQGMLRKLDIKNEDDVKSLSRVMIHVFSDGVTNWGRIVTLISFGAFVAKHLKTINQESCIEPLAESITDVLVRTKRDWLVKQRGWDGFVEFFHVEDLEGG
Test: peptide SPOT array, c-Myc-tagged receptor at 1 uM or 100 nM, anti-c-Myc-Cy3
attribute_measured: SPOT signal as a fraction of Bim BH3's signal on the same receptor and array

Solved cases (4 shown):
Briefly, SPOT signal as a fraction of Bim BH3's signal on the same receptor and array measured for IVGGCVVGIAMARFADFIRGMLKLIL [DIRC2] : 0.18

Briefly, SPOT signal as a fraction of Bim BH3's signal on the same receptor and array measured for SFLSAHCASHLAWFGDSLTSLSQRLQ [TMEM214] : 0.06

Briefly, SPOT signal as a fraction of Bim BH3's signal on the same receptor and array measured for AIKWDPTGNLLASCLDDMTLKIWSMK [TBL1XR1] : 0.05

Briefly, SPOT signal as a fraction of Bim BH3's signal on the same receptor and array measured for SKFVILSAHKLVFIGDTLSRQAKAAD [BCAR1] : 0.06

(1) LNELYQRAKKLSKAGDNIPEEQPVAS [TMX2]
(2) PKKKMTLSEIYQWICDNFPYYREAGS [FOXJ3]
(3) GKPETCTGQDLADLGDRLRDWFQLLH [SPOCK2]
Descending sort on SPOT signal as a fraction of Bim BH3's signal on the same receptor and array required. Give the labels in the order specified.
2, 1, 3
(2: 0.22, 1: 0.05, 3: 0.01)
